- measurement_target: human ORL-1 receptor (Homo sapiens)
- Construct: host or cells: recombinant HEK-293 cells
- Sequence (P41146 whole entry): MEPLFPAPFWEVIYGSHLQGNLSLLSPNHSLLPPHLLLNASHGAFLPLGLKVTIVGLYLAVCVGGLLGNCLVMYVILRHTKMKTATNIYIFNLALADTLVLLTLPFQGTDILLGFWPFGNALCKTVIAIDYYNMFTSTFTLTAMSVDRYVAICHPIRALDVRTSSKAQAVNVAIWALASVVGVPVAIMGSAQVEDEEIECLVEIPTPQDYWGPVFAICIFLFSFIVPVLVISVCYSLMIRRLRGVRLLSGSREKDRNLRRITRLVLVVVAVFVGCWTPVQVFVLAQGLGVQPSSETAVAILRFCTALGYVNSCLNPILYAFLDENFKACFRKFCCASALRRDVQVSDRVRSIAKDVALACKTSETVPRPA
- assay_info: [35S]GTPγS functional assay with ORL-1 receptor membranes
- Assay type: biochemical
- settings: [35S]GTPγS functional assay; NC = 100
compounds and their reported Emax
Number only, in %; omit the unit.

Solved entries (count: 5):
CC(C)C[C@H](NC(=O)[C@H](CCCCN)NC(=O)[C@H](CCCNC(=N)N)NC(=O)[C@H](C)NC(=O)[C@H](CO)NC(=O)[C@H](CCCCN)NC(=O)[C@H](CCCNC(=N)N)NC(=O)C(C)(C)NC(=O)CNC(=O)[C@@H](NC(=O)[C@H](Cc1ccccc1)NC(=O)CNC(=O)CNC(=O)[C@@H](N)Cc1ccccc1)[C@@H](C)O)C(=O)N[C@@H](C)C(=O)N[C@@H](CC(N)=O)C(=O)N[C@@H](CCC(N)=O)C(=O)O :: 97
CC(C)C[C@H](NC(=O)[C@H](CCCCN)NC(=O)[C@H](CCCNC(=N)N)NC(=O)C(C)(C)NC(=O)[C@H](CO)NC(=O)[C@H](CCCCN)NC(=O)[C@H](CCCNC(=N)N)NC(=O)C(C)(C)NC(=O)CNC(=O)[C@@H](NC(=O)[C@H](Cc1ccccc1)NC(=O)CNC(=O)CNC(=O)[C@@H](N)Cc1ccccc1)[C@@H](C)O)C(=O)N[C@@H](C)C(=O)N[C@@H](CC(N)=O)C(=O)N[C@@H](CCC(N)=O)C(N)=O :: 90
CC(C)C[C@H](NC(=O)[C@H](CCCCN)NC(=O)[C@H](CCCNC(=N)N)NC(=O)[C@H](C)NC(=O)[C@H](CO)NC(=O)[C@H](CCCCN)NC(=O)[C@H](CCCNC(=N)N)NC(=O)[C@H](C)NC(=O)CNC(=O)[C@@H](NC(=O)[C@H](Cc1ccccc1)NC(=O)CNC(=O)CNC(=O)[C@@H](N)Cc1ccccc1)[C@@H](C)O)C(=O)NC(C)(C)C(=O)N[C@@H](CC(N)=O)C(=O)N[C@@H](CCC(N)=O)C(N)=O :: 97
CC(C)C[C@H](NC(=O)[C@H](CCCCN)NC(=O)[C@H](CCCNC(=N)N)NC(=O)[C@H](C)NC(=O)[C@H](CO)NC(=O)[C@H](CCCCN)NC(=O)[C@H](CCCNC(=N)N)NC(=O)C(C)(C)NC(=O)CNC(=O)[C@@H](NC(=O)[C@H](Cc1ccccc1)NC(=O)CNC(=O)CNC(=O)[C@@H](N)Cc1ccccc1)[C@@H](C)O)C(=O)N[C@@H](C)C(=O)N[C@@H](CC(N)=O)C(=O)N[C@@H](CCC(N)=O)C(N)=O :: 82
CC(C)C[C@H](NC(=O)[C@H](CCCCN)NC(=O)[C@H](CCCNC(=N)N)NC(=O)[C@H](C)NC(=O)[C@H](CO)NC(=O)[C@H](CCCCN)NC(=O)[C@H](CCCNC(=N)N)NC(=O)[C@H](C)NC(=O)CNC(=O)[C@@H](NC(=O)[C@H](Cc1ccccc1)NC(=O)CNC(=O)CNC(=O)[C@@H](N)Cc1ccccc1)[C@@H](C)O)C(=O)NC(C)(C)C(=O)N[C@@H](CC(N)=O)C(=O)N[C@@H](CCC(N)=O)C(=O)O :: 91

--- query ---
Look up Emax for this compound: "CC(C)C[C@H](NC(=O)[C@H](CCCCN)NC(=O)[C@H](CCCNC(=N)N)NC(=O)C(C)(C)NC(=O)[C@H](CO)NC(=O)[C@H](CCCCN)NC(=O)[C@H](CCCNC(=N)N)NC(=O)[C@H](C)NC(=O)CNC(=O)[C@@H](NC(=O)[C@H](Cc1ccccc1)NC(=O)CNC(=O)CNC(=O)[C@@H](N)Cc1ccccc1)[C@@H](C)O)C(=O)N[C@@H](C)C(=O)N[C@@H](CC(N)=O)C(=O)N[C@@H](CCC(N)=O)C(=O)O" 96
